# System: reductase RRG
# PROCEDURE SUMMARY: Substrate specificity of RRG: reducing activity against various carbonyl compounds
# Type: biochemical, Rhodotorula glutinis var. dairenensis IFO 0415
# CONDITION INFO: relative to reducing activity with 2-chloro-1-(3′-chlorophenyl)ethanone taken as 100%; substrate 1 mM, NADPH 0.25 mM, pH 6.5, 30° C.
% Activity vs 10%: at or above is satisfied, below is not satisfied.

1. O=CCCCC=O	not satisfied
2. CCCC(C)=O	satisfied
3. O=C(O)CC(=O)C(=O)O	satisfied
4. CCOC(=O)C(Cl)C(C)=O (stereo not drawn) [ethyl 2-chloroacetoacetate]	satisfied

Incoming: Would you say CC1(C)COC(=O)C1=O [dihydro-4,4-dimethyl-furandio] shows % Activity at minimum 10%?
Outgoing: satisfied

* * *

# System: reductase RRG
# PROCEDURE SUMMARY: Substrate specificity of RRG: reducing activity against various carbonyl compounds
# Type: biochemical, Rhodotorula glutinis var. dairenensis IFO 0415
# CONDITION INFO: relative to reducing activity with 2-chloro-1-(3′-chlorophenyl)ethanone taken as 100%; substrate 1 mM, NADPH 0.25 mM, pH 6.5, 30° C.
% Activity vs 20%: at or above is TRUE, below is FALSE.

1. O=C(CO)c1ccccc1 [2-hydroxyacetophenone]	TRUE
2. O=Cc1cccc(Cl)c1	TRUE
3. O=CCCc1ccccc1	FALSE
4. O=C(/C=C/c1ccccc1)c1ccccc1 [trans-calcone]	TRUE

Incoming: Would you say CC(=O)CO [hydroxyacetone] shows % Activity at minimum 20%?
Outgoing: FALSE

Incoming: Would you say CCCCCCC(=O)C(=O)OC [methyl 2-oxooctanoate] shows % Activity at minimum 20%?
Outgoing: FALSE
